B1: Zinc finger homeobox protein 3, residues 2147 to 2202; numbered along this chain, Q15911 (parent)
chain: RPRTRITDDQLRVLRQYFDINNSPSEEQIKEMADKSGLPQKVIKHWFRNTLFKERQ

- Variants of: B1
- assay remarks: abundance fitness (aPCA) (normalised: wild type 0, dead -1); higher = more abundant; growth selection in yeast, the domain comes from the species named
- recorded conditions: Homo sapiens
Outcome: rule met for abundance fitness of at least -0.2; rule not met for anything lower.

Prompt: Hi team, for `K53V` , is the recorded abundance fitness at or above -0.2?
Completion: rule met

Prompt: Form field: abundance fitness at least -0.2? Entry: `L38S`
Completion: rule not met

Prompt: hey, is abundance fitness for this one >= -0.2? `N22Q`
Completion: rule met

Prompt: Reported abundance fitness at or above -0.2? `F52N`
Completion: rule met

Prompt: Identify whether the reported abundance fitness of the following variant is -0.2 or greater: `V13G`
Completion: rule not met

Prompt: # bool: abundance fitness of `N22C` >= -0.2
Completion: rule met

Prompt: Is abundance fitness at least -0.2? Consider `S36T`
Completion: rule met

Prompt: Please indicate if the recorded abundance fitness for `S25H` meets or exceeds -0.2.
Completion: rule not met

Prompt: Test whether the variant `K41C` records abundance fitness of -0.2 or higher.
Completion: rule met

Prompt: Answer whether abundance fitness of `F47D` is greater than or equal to -0.2.
Completion: rule not met

Prompt: Check the entry `R5M` : does abundance fitness equal or exceed -0.2?
Completion: rule met

Prompt: Tell me whether abundance fitness is at least -0.2 here: `R5P`
Completion: rule met

Prompt: Quick check: does `F47V` have abundance fitness greater than or equal to -0.2?
Completion: rule met

Prompt: Determine whether measured abundance fitness meets or exceeds -0.2 for `N21L`
Completion: rule not met

Prompt: Does `K30D` have a reported abundance fitness of at least -0.2?
Completion: rule met

Prompt: Identify whether the reported abundance fitness of the following variant is -0.2 or greater: `I29M`
Completion: rule met

Prompt: Would you say `R1T` shows abundance fitness at minimum -0.2?
Completion: rule not met

Prompt: Assess whether reported abundance fitness for `R3T` sits at -0.2 or higher.
Completion: rule met

Prompt: Evaluate `S25W` : abundance fitness at minimum -0.2?
Completion: rule not met

Prompt: Say whether `E27R` shows abundance fitness of -0.2 or more.
Completion: rule met

Prompt: Item `Q28R` with abundance fitness of -0.2 or above?
Completion: rule not met

Prompt: abundance fitness >= -0.2 for `N22I` ?
Completion: rule met

Prompt: Say whether `D34C` shows abundance fitness of -0.2 or more.
Completion: rule met

Prompt: Would you say `Q16W` shows abundance fitness at minimum -0.2?
Completion: rule met

Prompt: Tell me whether abundance fitness is at least -0.2 here: `P2D`
Completion: rule met

Prompt: Decide: is the reported value of abundance fitness for `A33K` equal to or greater than -0.2?
Completion: rule not met

Prompt: abundance fitness >= -0.2 for `M32K` ?
Completion: rule not met

Prompt: # bool: abundance fitness of `T7E` >= -0.2
Completion: rule met

Prompt: Hi, just wondering whether `Q40D` shows abundance fitness of -0.2 or higher.
Completion: rule met

Prompt: Is abundance fitness for `H45D` at or above -0.2?
Completion: rule met

Prompt: Reported abundance fitness at or above -0.2? `Y17F`
Completion: rule met

Prompt: Tell me whether abundance fitness is at least -0.2 here: `R1W`
Completion: rule not met

Prompt: Given `R12K` , state whether its abundance fitness is at least -0.2.
Completion: rule met

Prompt: Check if abundance fitness >= -0.2 (inclusive). Item: `W46V`
Completion: rule met

Prompt: Say whether `K53W` shows abundance fitness of -0.2 or more.
Completion: rule not met

Prompt: Does `S36G` have a reported abundance fitness of at least -0.2?
Completion: rule not met

Prompt: Tell me whether abundance fitness is at least -0.2 here: `R3D`
Completion: rule met
